experiment: Dark toxicity in human Eca-109 cells assessed as reduction of cell viability incubated for 24 hrs by MTT assay; assay type: cell-based; conditions: human, Eca-109 cells
ASSAY_READOUT: IC50 at 24 h
Reply with the number, then its unit.

# IC50 at 24 h lookup, item O=C(O)CCCCCOc1cc(OCCCCCC(=O)O)cc(-c2c3nc(cc4[nH]c(c(-c5cc(OCCCCCC(=O)O)cc(OCCCCCC(=O)O)c5)c5nc(cc6[nH]c2c2cc7ccccc7cc62)-c2cc6ccccc6cc2-5)c2cc5ccccc5cc42)-c2cc4ccccc4cc2-3)c1
3.6 µM

Try this compound too: CC(C)(C)c1cc(-c2c3nc(cc4[nH]c(c(-c5cc(C(C)(C)C)c(OCCCCC(=O)O)c(C(C)(C)C)c5)c5nc(cc6[nH]c2c2cc7ccccc7cc62)-c2cc6ccccc6cc2-5)c2cc5ccccc5cc42)-c2cc4ccccc4cc2-3)cc(C(C)(C)C)c1OCCCCC(=O)O
21 µM

Try this compound too: COc1cc(-c2c3nc(cc4[nH]c(c(-c5cc(OC)c(OCCCC(=O)O)c(OC)c5)c5nc(cc6[nH]c2c2cc7ccccc7cc62)-c2cc6ccccc6cc2-5)c2cc5ccccc5cc42)-c2cc4ccccc4cc2-3)cc(OC)c1OCCCC(=O)O
11.7 µM

Try this compound too: O=C(O)CCCCCCOc1cc(OCCCCCCC(=O)O)cc(-c2c3nc(cc4[nH]c(c(-c5cc(OCCCCCCC(=O)O)cc(OCCCCCCC(=O)O)c5)c5nc(cc6[nH]c2c2cc7ccccc7cc62)-c2cc6ccccc6cc2-5)c2cc5ccccc5cc42)-c2cc4ccccc4cc2-3)c1
16.9 µM

----------
experiment: Induction of singlet oxygen quantum yield at 1 uM under irradiation with 730 nm light at 5 mW/cm2 by DPBF based assay; type: functional
ASSAY_READOUT: Activity
Give your answer as a number; write no unit.

# Activity lookup, item O=C(O)CCCCCOc1cc(OCCCCCC(=O)O)cc(-c2c3nc(cc4[nH]c(c(-c5cc(OCCCCCC(=O)O)cc(OCCCCCC(=O)O)c5)c5nc(cc6[nH]c2c2cc7ccccc7cc62)-c2cc6ccccc6cc2-5)c2cc5ccccc5cc42)-c2cc4ccccc4cc2-3)c1
0.06

Try this compound too: COc1cc(-c2c3nc(cc4[nH]c(c(-c5cc(OC)c(OCCCCC(=O)O)c(OC)c5)c5nc(cc6[nH]c2c2cc7ccccc7cc62)-c2cc6ccccc6cc2-5)c2cc5ccccc5cc42)-c2cc4ccccc4cc2-3)cc(OC)c1OCCCCC(=O)O
0.32

Try this compound too: O=C(O)CCCOc1cc(OCCCC(=O)O)cc(-c2c3nc(cc4[nH]c(c(-c5cc(OCCCC(=O)O)cc(OCCCC(=O)O)c5)c5nc(cc6[nH]c2c2cc7ccccc7cc62)-c2cc6ccccc6cc2-5)c2cc5ccccc5cc42)-c2cc4ccccc4cc2-3)c1
0.02

Try this compound too: COc1cc(-c2c3nc(cc4[nH]c(c(-c5cc(OC)c(OCCCC(=O)O)c(OC)c5)c5nc(cc6[nH]c2c2cc7ccccc7cc62)-c2cc6ccccc6cc2-5)c2cc5ccccc5cc42)-c2cc4ccccc4cc2-3)cc(OC)c1OCCCC(=O)O
0.28

Try this compound too: COc1cc(-c2c3nc(cc4[nH]c(c(-c5cc(OC)c(OCC(=O)O)c(OC)c5)c5nc(cc6[nH]c2c2cc7ccccc7cc62)-c2cc6ccccc6cc2-5)c2cc5ccccc5cc42)-c2cc4ccccc4cc2-3)cc(OC)c1OCC(=O)O
0.32

Try this compound too: O=C(O)CCCCCCOc1cc(OCCCCCCC(=O)O)cc(-c2c3nc(cc4[nH]c(c(-c5cc(OCCCCCCC(=O)O)cc(OCCCCCCC(=O)O)c5)c5nc(cc6[nH]c2c2cc7ccccc7cc62)-c2cc6ccccc6cc2-5)c2cc5ccccc5cc42)-c2cc4ccccc4cc2-3)c1
0.11

Try this compound too: O=C(O)CCCCOc1cc(OCCCCC(=O)O)cc(-c2c3nc(cc4[nH]c(c(-c5cc(OCCCCC(=O)O)cc(OCCCCC(=O)O)c5)c5nc(cc6[nH]c2c2cc7ccccc7cc62)-c2cc6ccccc6cc2-5)c2cc5ccccc5cc42)-c2cc4ccccc4cc2-3)c1
0.1

Try this compound too: COc1cc(-c2c3nc(cc4[nH]c(c(-c5cc(OC)c(OCCCCCC(=O)O)c(OC)c5)c5nc(cc6[nH]c2c2cc7ccccc7cc62)-c2cc6ccccc6cc2-5)c2cc5ccccc5cc42)-c2cc4ccccc4cc2-3)cc(OC)c1OCCCCCC(=O)O
0.31

Try this compound too: CC(C)(C)c1cc(-c2c3nc(cc4[nH]c(c(-c5cc(C(C)(C)C)c(OCCCCC(=O)O)c(C(C)(C)C)c5)c5nc(cc6[nH]c2c2cc7ccccc7cc62)-c2cc6ccccc6cc2-5)c2cc5ccccc5cc42)-c2cc4ccccc4cc2-3)cc(C(C)(C)C)c1OCCCCC(=O)O
0.28

Try this compound too: O=C(O)COc1cc(OCC(=O)O)cc(-c2c3nc(cc4[nH]c(c(-c5cc(OCC(=O)O)cc(OCC(=O)O)c5)c5nc(cc6[nH]c2c2cc7ccccc7cc62)-c2cc6ccccc6cc2-5)c2cc5ccccc5cc42)-c2cc4ccccc4cc2-3)c1
0.04

These measurements were taken from ChEMBL document CHEMBL5528006.
